Task for the reader: assign each of the following compounds its reported IC50.
- TESTED_TARGET: SARS-CoV-2 3CLpro (Severe acute respiratory syndrome coronavirus 2 (2019-nCoV) (SARS-CoV-2))
Write the number in nM without appending the unit.

Problem: For O=C(Cc1cncc2ccccc12)N(Cc1cncc(F)c1)c1ccc(-c2c[nH]cn2)cc1 [Compound 40] , write its IC50.
Result: 53

Problem: Using known records, supply IC50 for CC(C)CN(C(=O)Cc1nnc2ccccn12)c1ccc(-c2c[nH]cn2)cc1 [Compound 46]
Result: 8100

Problem: Tell us which IC50 value is on record for O=C(Cc1cncc2ccccc12)N(Cc1cc(Cl)ccc1F)c1ccc(-c2c[nH]cn2)cc1 [Compound 15]
Result: 308

Problem: Identify measured IC50 corresponding to O=C(Cc1cnccc1C(F)(F)F)N(Cc1cc(F)cc(Cl)c1)c1ccc(-c2c[nH]cn2)cc1 [Compound 75]
Result: 1000

Problem: Give the value of IC50 reported for the following: COc1ccc(F)cc1CN(C(=O)Cc1cncc2ccccc12)c1ccc(-c2c[nH]cn2)cc1 [Compound 53]
Result: 179

Problem: Let me know recorded IC50 for O=C1NC(CC(=O)N(Cc2cc(F)cc(Cl)c2)c2ccc(-c3c[nH]cn3)cc2)c2ccccc21 (centres unmarked) [Compound 50] , thanks.
Result: 30800

Problem: Tell me measured IC50 for O=C(Cc1cncc2ccccc12)N(Cc1cc(F)cc(F)c1)c1ccc(C2CNC2)cc1 [Compound 62] please.
Result: 69

Problem: Recall and state the measured IC50 for O=C(Cc1cncc(F)c1)N(Cc1cc(F)cc(Cl)c1)c1ccc(-c2c[nH]cn2)cc1 [Compound 69] .
Result: 220

Problem: Give a short answer stating reported IC50 for O=C(Cc1nnc2ccc(F)cn12)N(Cc1cccc(Cl)c1)c1ccc(-c2cn[nH]c2)cc1 [Compound 3] .
Result: 3360

Problem: Using known records, supply IC50 for O=C1CNCCN1c1ccc(N(Cc2cc(F)cc(F)c2)C(=O)Cc2cncc3ccccc23)cc1 [Compound 35]
Result: 481

Problem: Fill in reported IC50 for this entry: O=C(Cc1cnccn1)N(Cc1cccc(Cl)c1)c1ccc(-c2cn[nH]c2)cc1 [Compound 5]
Result: 5220

Problem: Specify reported IC50 for the compound shown: CC(C)(C)NC(=O)C(c1cc(F)cc(F)c1)N(C(=O)Cc1cncc2ccccc12)c1ccc(-c2c[nH]cn2)cc1 (centres unmarked) [Compound 64]
Result: 231

Problem: Name the recorded IC50 of the item O=C(Cc1cncc2ccccc12)N(Cc1cccc(Cl)c1)c1ccc(-c2cn[nH]c2)cc1 [Compound 2] in your answer.
Result: 30

Problem: Identify the reported IC50 for the following entry. O=C(Cc1cccnc1)N(Cc1cc(F)cc(Cl)c1)c1ccc(-c2c[nH]cn2)cc1 [Compound 43]
Result: 188

Problem: Please look at this compound and report its IC50: O=C(Cc1cncc2ccccc12)N(Cc1cc(F)cc(OC(F)(F)F)c1)c1ccc(-c2c[nH]cn2)cc1 [Compound 61]
Result: 113

Problem: Report measured IC50; entry is O=C(Cc1cncc2ccccc12)N(Cc1cc(F)cc(Cl)c1)c1ccc(C2CNC2)cc1 [Compound 72]
Result: 56

Problem: Specify IC50 for O=C(Cc1cncc2ccccc12)N(Cc1cc(F)cc(Cl)c1)c1ccc(-c2c[nH]cn2)cn1 [Compound 29] and stop.
Result: 40

Problem: Provide only the value of recorded IC50 for O=C(Cc1nnc2ccccn12)N(Cc1cc(F)cc(F)c1)c1ccc(-c2c[nH]cn2)cc1 [Compound 27]
Result: 209

Problem: Could you please provide reported IC50 for C[C@H](c1cc(F)cc(Cl)c1)N(C(=O)Cc1cncc2ccccc12)c1ccc(-c2c[nH]cn2)cc1 [Compound 14] ? Thanks!
Result: 76

Problem: // fetch IC50 given entry O=C(Cc1cncc(C2CC2)c1)N(Cc1cc(F)cc(Cl)c1)c1ccc(-c2c[nH]cn2)cc1 [Compound 71]
Result: 115

Problem: Give a short answer stating reported IC50 for Cc1ccc2nnc(CC(=O)N(Cc3cc(F)cc(F)c3)c3ccc(-c4c[nH]cn4)cc3)n2n1 [Compound 41] .
Result: 604

Problem: Give recorded IC50. O=C(Cc1cnccn1)N(Cc1cc(F)cc(Cl)c1)c1ccc(-c2c[nH]cn2)cc1 [Compound 55]
Result: 2040

Problem: Please supply the value of reported IC50 for the item NCc1ccc(N(Cc2cc(F)cc(F)c2)C(=O)Cc2cncc3ccccc23)cc1 [Compound 74]
Result: 76

Problem: Supply IC50 value. Item: O=C(Cc1cncc2ccccc12)N(Cc1cc(F)cc(Cl)c1)c1ccc(C2=CCNC2)cc1 [Compound 57]
Result: 81

Problem: Note IC50 for the compound shown: CC(c1cc(F)cc(F)c1)N(C(=O)Cc1cncc2ccccc12)c1ccc(-c2c[nH]cn2)cc1 (centres unmarked) [Compound 30]
Result: 114

Problem: Provide measured IC50 value, entry: O=C(Cc1cncc2ccccc12)N(Cc1ccc(Cl)c(F)c1)c1ccc(-c2c[nH]cn2)cc1 [Compound 58]
Result: 1090

Problem: Specify reported IC50 for the compound shown: O=C(Cc1cncc2ccccc12)N(Cc1cccc(F)c1)c1ccc(-c2c[nH]cn2)cc1 [Compound 26]
Result: 351

Problem: Report IC50 for O=C(Cc1cncnc1)N(Cc1cc(F)cc(Cl)c1)c1ccc(-c2c[nH]cn2)cc1 [Compound 48]
Result: 542

Problem: Fill in reported IC50 for this entry: Cc1cncc(CC(=O)N(Cc2cc(F)cc(Cl)c2)c2ccc(C3CNC3)cc2)c1 [Compound 80]
Result: 110

Problem: Quote IC50 reported for O=C(Cc1cncc(C2CC2)c1)N(Cc1cc(F)cc(Cl)c1)c1ccc(C2CNC2)cc1 [Compound 79] please.
Result: 112

Problem: Entry O=C(Cc1cccnc1)N(Cc1cccc(Cl)c1)c1ccc(-c2c[nH]cn2)cc1 [Compound 44] needs its IC50 filled in; supply it.
Result: 414

Problem: Respond only with IC50 recorded for O=C(Cc1nnc2ccccn12)N(Cc1cccc(F)c1)c1ccc(-c2c[nH]cn2)cc1 [Compound 47]
Result: 621

The origin of these recorded values is patent US20240293380A1.
